Tested on: MS2 coat protein
assay explanation: apparent Kd, MS2 coat protein; higher = weaker binding; RNA-MaP array
condition set: ligand present: tryptophan; designed as: ON switch for tryptophan
measured metric: apparent Kd (nM)
Just the number please, in nM, no unit attached.

Consider the following illustrative entries.
# residue codes, measured metric, readout value
data = [
    ("AUUAACAUGAGGAUCACCCAUGUUUGUCUCCGAGGACCGGUACGGCCGCCACUCGCAGGUUGGAGUCGCUAUAUGGGCGUUCACU", "apparent Kd", 34.9),
    ("UUACACAUGAGGAUCACCCAUGUCUGGGAGCGAGGACCGGUACGGCCGCCACUCGAAUUGUCAGGGCUAUGCCGGACGAUGCAUC", "apparent Kd", 21.1),
    ("UGACACAUGAGGAUCACCCAUGUCGCGAAACGAGGACCGGUACGGCCGCCACUCGCACAAACUCCUCUCCAGCACCAGCUUUUAG", "apparent Kd", 15.5),
    ("UCUAACAUGAGGAUCACCCAUGUACCGUCCCGAGGACCGGUACGGCCGCCACUCGUCUUGCUAAAACUGAAGUGAUCACAAGCCU", "apparent Kd", 30.8),
    ("AGGAAUGUCACGGCCGCCACUGACGCUAAAAUGGGCUCGAGCCGACAUGAGGAUCACCCAUGUUCCAGGACCGGGUGAAUCCUGG", "apparent Kd", 123),
]

Next item in the queue.
# input // lookup apparent Kd for `UCCGCGGAGACGGCCGCCACUGAGUGAGAAGUCGUGCUCUAACUACAUGAGGAUCACCCAUGUCCCAGGACCGGGUCGAAGUGUU`
# output 103

====

Tested on: MS2 coat protein
assay explanation: apparent Kd, MS2 coat protein; higher = weaker binding; RNA-MaP array; theophylline 2 mM where present
condition set: designed as: ON switch for theophylline; no ligand
measured metric: apparent Kd
Answer as a quantity: numeral, then unit.

Consider the following illustrative entries.
# residue codes, apparent Kd
rows = [
    ("AACAUGAGGAUCACCCAUGUAUUGGGUGAUACCAGCCUGAAUAAUGGCCCUUGGCAGCACCGCGCUAACUUUAUGUCUGCGAAAC", "127 nM"),
    ("GAGACAUGAGGAUCACCCAUGUUAGAUGAUACCAGUUAGAGAAGGAGCCCUUGGCAGCGUAAAUCUAGAGCCUAUGACGACAUGU", "13.4 nM"),
    ("AAUAUAAGUGUAAUUAUAUGUAUCUCUGAUACCAGACUCUCAUGUGUCCCUUGGCAGCAGUUACAUGAGGAUCACCCAUGUAUUA", "103 nM"),
    ("AAAAUAAAUAAAACACGUAACAUGAAGGAUACCAGACCGGAAACGGUCCCUUGGCAGCCUCUACAUGAGGAUCACCCAUGUCGUG", "238 nM"),
    ("UUAAAUGUGACGGAUACCAGCGUGUUGUAGAACAUGAGGAUCACCCAUGUAGUGAUCGAGCGCCCUUGGCAGCUGGUAUGUUUGA", "180 nM"),
    ("AUCGUACCUGAUGAUACCAGCAAUUGCUCGUAACAUGAGGAUCACCCAUGUGAUCAGUGAUGCCCUUGGCAGCAUGAUCGGUGCA", "262 nM"),
    ("AACCGAGGCUAUCCUCUACGACUAUGUGAUACCAGAAUAAUUUUAUUCCCUUGGCAGCAUGACAUGAGGAUCACCCAUGUCUCUU", "39.2 nM"),
    ("UGUUUGGUGCGCGAGUGUUGGAUAAAUGAUACCAGUGUAGAUGUACGCCCUUGGCAGCGUAUCCGAACAUGAGGAUCACCCAUGU", "37.7 nM"),
]

# input // lookup apparent Kd for `UCUCGGUCUUUCUUUCUCCGAGAAUAUGAUACCAGUUAGUUUUAUGGCCCUUGGCAGCAUAGAACAUGAGGAUCACCCAUGUGUU`
# output 94.2 nM
